Origin of values: PubChem BioAssay

- System: Sonic hedgehog protein (Shh)
- PROTOCOL_NOTES: small-molecule binders of Shh protein, primary screen, biochemical, small-molecule microarray, 635/667 nm fluorescence (AID 1151);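 also: Shh protein binding to compounds spotted on small-molecule microarray slides; score combines spot fluorescence intensity with signal-to-noise across triplicate slides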
- APPLIED_CONDITIONS: small-molecule microarray binding, 635 nm fluorescence; higher = more signal
Task for the reader: assign each of the following compounds its reported composite z-score.
Reply with the value as a number alone.

Briefly, composite z-score measured for CCCCN1CC=CC23O[C@@H]4/C=C\CCC(C)OC(=O)C4[C@H]2C(=O)N(CCO)[C@@H]3C1=O (stereo partly specified) : -0.0956

Briefly, composite z-score measured for COCCOC(=O)N1C(=O)[C@@]2(c3cc(C#CCCO)ccc31)[C@H](c1ccc(O)cc1)N1[C@H](c3ccccc3)[C@H](c3ccccc3)OC(=O)[C@H]1[C@@H]2C(=O)NC[C@H](O)c1ccccc1 : 1.03

Briefly, composite z-score measured for C=CC[C@]1(C(=O)NCC(O)CO)N=C(c2ccc(OCCCO)cc2)O[C@H]1c1ccccc1CN=[N+]=[N-] (stereo partly specified) : -0.803

Briefly, composite z-score measured for [N-]=[N+]=Nc1ccccc1C[C@@]1(C(=O)NCc2ccccc2)N=C(c2ccc(OCCCO)cc2)O[C@@H]1c1ccccc1 : 0.242

Briefly, composite z-score measured for COc1ccc([Si](C)(C)[C@H]2[C@H](CC(=O)N3CCC[C@H]3CO)O[C@@]3(C(=O)N(Cc4cccc(N5CCCCC5=O)c4)c4ccccc43)[C@@H]2C)cc1 : 2.01

Briefly, composite z-score measured for COc1ccc([Si](C)(C)[C@@H]2[C@@H](CC(=O)N3Cc4ccccc4C[C@H]3CO)O[C@]3(C(=O)N(Cc4ccc(I)cc4)c4ccccc43)[C@H]2C)cc1 : 1.94

---

- PROTOCOL_NOTES: modulators of HCV replicon luciferase signal, primary screen, HCV replication inhibitor project, Huh7 cells, luciferase reporter (AID 1109);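 also: huh7 hepatoma cells harbouring a luciferase neomycin HCV replicon reporter; luciferase luminescence as measure of HCV replicon replication; test concentration not given here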
- APPLIED_CONDITIONS: 48 h, higher = more signal
RECORDED_METRIC: z-score
Reply with the value as a number alone.

Briefly, z-score measured for COc1ccc(NN2C(C(O)c3ccc(F)cc3)C=CC3C(=O)N(C4CCCCC4)C(=O)C32)cc1 (configuration not stated) : -0.502

Briefly, z-score measured for CCCCN1CC=CC23O[C@@H]4C=CCCOC(=O)C4[C@H]2C(=O)N(CCO)[C@@H]3C1=O (some centres not stated) : -0.161

Briefly, z-score measured for COCCOC(=O)N1C(=O)[C@@]2(c3cc(C#CCC(C(=O)OC)C(=O)OC)ccc31)[C@H](c1ccc(O)cc1)N1[C@H](c3ccccc3)[C@H](c3ccccc3)OC(=O)[C@H]1[C@@H]2C(=O)N1CCc2cc(OC)c(OC)cc2C1 : -0.284

Briefly, z-score measured for Cc1cccc([C@H]2C[C@H]3C(Br)=C[C@@]2(CO)C(=O)[C@]32CO2)c1 : -1.27

Briefly, z-score measured for C[C@@]1([C@@H](NS(=O)(=O)c2cccc3cccnc23)c2ccc(-c3ccccc3)cc2)C[C@H]1C1CCCCC1 : -0.479

Briefly, z-score measured for COC(=O)C(CC#Cc1ccc2c(c1)[C@]1(C(=O)N2)[C@H](c2ccccc2OCCO)N2[C@H](c3ccccc3)[C@H](c3ccccc3)OC(=O)[C@H]2[C@@H]1C(=O)N1CCN(c2ncccn2)CC1)C(=O)OC : -2.63

Briefly, z-score measured for O=C1NC(=O)C2C1C=CC(C(O)C1CCCCC1)N2Nc1ccccn1 (configuration not stated) : -0.442
